target: recombinantly expressed His-tagged protein corresponding to amino acids 575-869 of human Tyk2 (Homo sapiens, UniProt P29597); assay: Probe displacement assay (scintillation proximity, tritiated probe); conditions: His-tagged Tyk2 (575-869) 2.5 nM, 40 nM radiolabeled probe, 30 minutes at room temperature
Sequence (P29597 with tags, fused parts or gaps): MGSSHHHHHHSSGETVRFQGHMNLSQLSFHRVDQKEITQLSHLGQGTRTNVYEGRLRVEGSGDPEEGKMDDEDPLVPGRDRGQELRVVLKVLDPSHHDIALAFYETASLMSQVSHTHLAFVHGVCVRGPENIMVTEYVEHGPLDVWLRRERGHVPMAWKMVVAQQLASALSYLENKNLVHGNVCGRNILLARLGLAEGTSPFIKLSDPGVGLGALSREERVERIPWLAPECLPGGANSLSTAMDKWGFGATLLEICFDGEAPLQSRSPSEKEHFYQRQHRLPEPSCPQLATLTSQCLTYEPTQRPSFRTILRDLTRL
pEC50: −log10 of the molar value.
readout_name: pEC50

Some solved entries appear below for comparison.
INSERT INTO results (compound, data_value) VALUES
  ('O=C(NC1CC1)c1cnc2c(NCCN3CCOCC3)cc(Nc3cccc4c3OCCO4)nn12', 8.12),
  ('CNc1nc(Nc2cc(C)cc(C)c2)nn2c(C(N)=O)cnc12', 8.26),
  ('CNc1cc(N2CCc3ccccc32)nn2c(C(=O)NCC(C)(C)O)cnc12', 7.05),
  ('CNc1cc(Nc2c(F)c(F)cc(F)c2F)nn2c(C(N)=O)cnc12', 8.23),
  ('CNc1cc(Nc2ccccc2OC)nn2c(C(=O)NCC(C)(C)O)cnc12', 8.32),
  ('CNc1cc(Nc2ccccc2OC)nn2c(C(=O)NC3CC3)cnc12', 8.40),
  ('CNc1cc(Nc2c(OC)ccc(F)c2F)nn2c(C(=O)NC3CC3)cnc12', 8.68),
  ('CNc1cc(Nc2cccnc2-n2cccn2)nn2c(C(=O)NC3CCCC3O)cnc12 (stereo not drawn)', 7.22);

[A] CNc1cc(Nc2cccnc2OC)nn2c(C(=O)NC3CC3)cnc12
[B] CNc1cc(N(C)c2ccccc2)nn2c(C(=O)NC3CC3)cnc12
Given the two records A and B , choose the one whose pEC50 value is lower. Identify your selection by its label.
B
(B: 7.30, A: 8.86)

---

system: IFNα stimulated Kit225 T cells with a stably-integrated STAT-dependent luciferase reporter; experiment: Kit225 T cell assay, IFNα stimulated STAT-dependent luciferase reporter; type: cell-based, human; details: KIT225; 200 U/mL human recombinant IFNα, 5-6 hours, luciferase; read-out: IFNa Kit225 Reporter, (IC50)
pIC50: −log10 of the molar value.
readout_name: pIC50

Example compounds with recorded pIC50:
INSERT INTO assay_data (cpd_smiles, data_value) VALUES
  ('Cc1cc(C)cc(Nc2cc(Nc3cccnc3)c3ncc(C(N)=O)n3n2)c1', 4.90),
  ('CNc1cc(Nc2cc(F)cc(F)c2F)nn2c(C(=O)NCC(C)(C)CO)cnc12', 8.00);

[P] CNc1cc(Nc2cccc(N3CCCC3=O)n2)nn2c(C(=O)NC3CC3)cnc12
[Q] O=C(NC1CC1)c1cnc2c(NCCN3CCOCC3)cc(Nc3cccc4c3OCCO4)nn12
Choose between P and Q : whose measured pIC50 value is numerically larger? Returns: label corresponding to the selected item.
P

---

molecular target: recombinantly expressed His-tagged protein corresponding to amino acids 575-869 of human Tyk2 (Homo sapiens, UniProt P29597); assay: Probe displacement assay (scintillation proximity, tritiated probe); settings: His-tagged Tyk2 (575-869) 2.5 nM, 40 nM radiolabeled probe, 30 minutes at room temperature
readout_name: EC50 (nM)

[a] CNc1cc(Nc2cncc(C)c2)nn2c(C(=O)NC3CC3)cnc12 [Example 96]
[b] Cc1cc(C)cc(Nc2cc(NCCO)c3ncc(C(N)=O)n3n2)c1 [Example 52]
Looking at a and b , which one comes out lower in EC50 terms? Mark your answer with the label of the selected entry.
a

[A] CNc1cc(Nc2cccc3c2OCCO3)nn2c(C(=O)NCC(C)(C)O)cnc12 [Example 82]
[B] CNc1cc(Nc2cc(F)cc(F)c2OC)nn2c(C(N)=O)cnc12 [Example 83]
Short answer wanted: higher EC50, A or B ? # answer = label of selected item
A
(A: 10 nM, B: 5.76 nM)
